Recorded values, source PubChem BioAssay AID1963966.

tested on: 935938-334-R-J1-PDC spheroids with HUVEC/MSC, viability; test: Anticancer human tumor 935938-334-R-J1-PDC patient-derived small intestine adenocarcinoma cell line growth inhibition [PI3K]; conditions: second compound 1 µM; first compound 0.01 µM; stronger effect = lower value
Decide using viability, T/C alone. Strictly below 60%: Condition met. Equal to or above 60%: Condition not met.

Some solved entries appear below for comparison.
molecule	class
CC(=O)c1c(C)c2cnc(Nc3ccc(N4CCNCC4)cn3)nc2n(C2CCCC2)c1=O + CC(Nc1ccc2c(c1)OCCn1cc(N3C(=O)OCC3C(F)F)nc1-2)C(N)=O	Condition not met
CC(=O)c1c(C)c2cnc(Nc3ccc(N4CCNCC4)cn3)nc2n(C2CCCC2)c1=O + COc1c(OCCCN2CCOCC2)ccc2c3n(c(=NC(=O)c4cnc(N)nc4)nc12)CCN3	Condition met
Cn1ncnc1[C@H]1c2n[nH]c(=O)c3cc(F)cc(c23)N[C@@H]1c1ccc(F)cc1 + Cc1nc(NC(=O)N2CCCC2C(N)=O)sc1-c1ccnc(C(C)(C)C(F)(F)F)c1	Condition met
CC(C)n1nc(-c2ccc3oc(N)nc3c2)c2c(N)ncnc21 + CC(Nc1ccc2c(c1)OCCn1cc(N3C(=O)OCC3C(F)F)nc1-2)C(N)=O	Condition met
CCN1CCN(Cc2ccc(Nc3ncc(F)c(-c4cc(F)c5nc(C)n(C(C)C)c5c4)n3)nc2)CC1 + COc1c(OCCCN2CCOCC2)ccc2c3n(c(=NC(=O)c4cnc(N)nc4)nc12)CCN3	Condition met

-- ask I wonder whether Cn1ncnc1[C@H]1c2n[nH]c(=O)c3cc(F)cc(c23)N[C@@H]1c1ccc(F)cc1 + COc1c(OCCCN2CCOCC2)ccc2c3n(c(=NC(=O)c4cnc(N)nc4)nc12)CCN3 has viability, T/C below 60%. Can you tell?
-- reply Condition met

----------
Entries and their viability, T/C values follow.
tested on: 935938-334-R-J1-PDC spheroids with HUVEC/MSC, viability; assay: Anticancer human tumor 935938-334-R-J1-PDC cell line growth inhibition [PI3K]; conditions: second compound 0.0316 µM; first compound 1 µM; stronger effect = lower value;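 also: compound exposure lasted seven days before viability was read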;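 as to viability, T/C: percent of vehicle DMSO treated spheroid viability so 100% = untreated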

# example entries with known answers
compound	viability, T/C
CCCS(=O)(=O)Nc1ccc(F)c(C(=O)c2c[nH]c3ncc(-c4ccc(Cl)cc4)cc23)c1F + CC(Nc1ccc2c(c1)OCCn1cc(N3C(=O)OCC3C(F)F)nc1-2)C(N)=O	110%
CCN1CCN(Cc2ccc(Nc3ncc(F)c(-c4cc(F)c5nc(C)n(C(C)C)c5c4)n3)nc2)CC1 + CC(Nc1ccc2c(c1)OCCn1cc(N3C(=O)OCC3C(F)F)nc1-2)C(N)=O	19.6%
C=CC(=O)N1CCN(c2nc(=O)n(-c3c(C)ccnc3C(C)C)c3nc(-c4c(O)cccc4F)c(F)cc23)C(C)C1 (configuration not stated) + CC(Nc1ccc2c(c1)OCCn1cc(N3C(=O)OCC3C(F)F)nc1-2)C(N)=O	86%

-- ask // viability, T/C lookup, key: C=CC(=O)N1CCN(c2nc(=O)n(-c3c(C)ccnc3C(C)C)c3nc(-c4c(O)cccc4F)c(F)cc23)C(C)C1 (configuration not stated) + COc1c(OCCCN2CCOCC2)ccc2c3n(c(=NC(=O)c4cnc(N)nc4)nc12)CCN3
-- reply 71.7%

-- ask Bench note: what viability, T/C did C[C@@H](NC(=O)c1ncnc(N)c1Cl)c1ncc(C(=O)Nc2cc(C(F)(F)F)c(Cl)cn2)s1 + COc1c(OCCCN2CCOCC2)ccc2c3n(c(=NC(=O)c4cnc(N)nc4)nc12)CCN3 show?
-- reply 85.4%

----------
test system: 935938-334-R-J1-PDC spheroids with HUVEC/MSC, viability; experiment: Anticancer human tumor 935938-334-R-J1-PDC cell line growth inhibition [PI3K]; conditions: second compound 0.1 µM; first compound 0.0316 µM; stronger effect = lower value;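 also: compound exposure lasted seven days before viability was read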;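 as to viability, T/C: percent of vehicle DMSO treated spheroid viability so 100% = untreated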
quantity: viability, T/C

See these solved cases before continuing.
molecule	viability, T/C
Cn1ncnc1[C@H]1c2n[nH]c(=O)c3cc(F)cc(c23)N[C@@H]1c1ccc(F)cc1 + CC(Nc1ccc2c(c1)OCCn1cc(N3C(=O)OCC3C(F)F)nc1-2)C(N)=O	93.3%
C[C@@H](NC(=O)c1ncnc(N)c1Cl)c1ncc(C(=O)Nc2cc(C(F)(F)F)c(Cl)cn2)s1 + CC(Nc1ccc2c(c1)OCCn1cc(N3C(=O)OCC3C(F)F)nc1-2)C(N)=O	89%
C#Cc1c(F)ccc2cc(O)cc(-c3ncc4c(N5CC6CCC(C5)N6)nc(OCC56CCCN5CC(F)C6)nc4c3F)c12 (stereo not drawn) + COc1c(OCCCN2CCOCC2)ccc2c3n(c(=NC(=O)c4cnc(N)nc4)nc12)CCN3	57.5%

-- ask API: value(readout= viability, T/C, system= 935938-334-R-J1-PDC spheroids with HUVEC/MSC, viability, query= CC1(C)CCC(CN2CCN(c3ccc(C(=O)NS(=O)(=O)c4ccc(NCC5CCOCC5)c([N+](=O)[O-])c4)c(Oc4cnc5[nH]ccc5c4)c3)CC2)=C(c2ccc(Cl)cc2)C1 + Cc1nc(NC(=O)N2CCCC2C(N)=O)sc1-c1ccnc(C(C)(C)C(F)(F)F)c1 )
-- reply 81.9%

-- ask Item CCCS(=O)(=O)Nc1ccc(F)c(C(=O)c2c[nH]c3ncc(-c4ccc(Cl)cc4)cc23)c1F + Cc1nc(NC(=O)N2CCCC2C(N)=O)sc1-c1ccnc(C(C)(C)C(F)(F)F)c1 with 935938-334-R-J1-PDC spheroids with HUVEC/MSC, viability - viability, T/C?
-- reply 90.2%

-- ask Recorded viability, T/C for CCN1CCN(Cc2ccc(Nc3ncc(F)c(-c4cc(F)c5nc(C)n(C(C)C)c5c4)n3)nc2)CC1 + Cc1nc(NC(=O)N2CCCC2C(N)=O)sc1-c1ccnc(C(C)(C)C(F)(F)F)c1 with 935938-334-R-J1-PDC spheroids with HUVEC/MSC, viability, please?
-- reply 53.3%

-- ask Form entry - test system: 935938-334-R-J1-PDC spheroids with HUVEC/MSC, viability; read-out: viability, T/C; molecule: CNC(=O)c1ccc(N2C(=S)N(c3ccc(C#N)c(C(F)(F)F)c3)C(=O)C2(C)C)cc1F + CC(Nc1ncnc2nc[nH]c12)c1cc2cccc(Cl)c2c(=O)n1-c1ccccc1
-- reply 98.1%

-- ask Query for 935938-334-R-J1-PDC spheroids with HUVEC/MSC, viability: what viability, T/C does the record show for CC(C)n1nc(-c2ccc3oc(N)nc3c2)c2c(N)ncnc21 + COc1c(OCCCN2CCOCC2)ccc2c3n(c(=NC(=O)c4cnc(N)nc4)nc12)CCN3 ?
-- reply 36.9%

----------
tested on: 935938-334-R-J1-PDC spheroids with HUVEC/MSC, viability; test: Anticancer human tumor 935938-334-R-J1-PDC cell line growth inhibition [PI3K]; conditions: second compound 1 µM; first compound 0.3 µM; stronger effect = lower value;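 also: compound exposure lasted seven days before viability was read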;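 as to viability, T/C: percent of vehicle DMSO treated spheroid viability so 100% = untreated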
quantity: viability, T/C (%)
Value expressed in %; do not type the unit.

Consider the reported viability, T/C for these compounds:
compound	quantity	value-unit	value-observed
Cn1cnc2c(F)c(Nc3ccc(Br)cc3Cl)c(C(=O)NOCCO)cc21 + CC(Nc1ncnc2nc[nH]c12)c1cc2cccc(Cl)c2c(=O)n1-c1ccccc1	viability, T/C	%	30.9
Cn1cnc2c(F)c(Nc3ccc(Br)cc3Cl)c(C(=O)NOCCO)cc21 + Cc1nc(NC(=O)N2CCCC2C(N)=O)sc1-c1ccnc(C(C)(C)C(F)(F)F)c1	viability, T/C	%	19.4
Cn1cnc2c(F)c(Nc3ccc(Br)cc3Cl)c(C(=O)NOCCO)cc21 + COc1c(OCCCN2CCOCC2)ccc2c3n(c(=NC(=O)c4cnc(N)nc4)nc12)CCN3	viability, T/C	%	21.3

In the following, a different compound is considered.
-- ask Report viability, T/C for Cn1cnc2c(F)c(Nc3ccc(Br)cc3Cl)c(C(=O)NOCCO)cc21 + CC(Nc1ccc2c(c1)OCCn1cc(N3C(=O)OCC3C(F)F)nc1-2)C(N)=O please.
-- reply 17.4

----------
Test system: 935938-334-R-J1-PDC spheroids with HUVEC/MSC, viability
Experiment: Anticancer human tumor 935938-334-R-J1-PDC cell line growth inhibition [PI3K];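 also: compound exposure lasted seven days before viability was read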
Conditions: curve of first compound; second compound 1 µM
Excerpt: Combinatorial screen of targeted agents with the PI3K inhibitors inavolisib, alpelisib, duvelisib, and copanlisib in multi-cell type tumor spheroids A high-throughput screen of multi-cell type tumor spheroids was designed to identify active combinations of targeted small molecules and PI3K pathway inhibitors. […] Compounds. […] If the clinical Cmax for an agent had not been determined, the highest concentration tested was 10 microM. […]
Each record here notes measured IC50.
Numbers only here, please. The scale is nM.

molecule	quantity	value-unit	value-observed
CCN1CCN(Cc2ccc(Nc3ncc(F)c(-c4cc(F)c5nc(C)n(C(C)C)c5c4)n3)nc2)CC1 + Cc1nc(NC(=O)N2CCCC2C(N)=O)sc1-c1ccnc(C(C)(C)C(F)(F)F)c1	IC50	nM	18.8

-- ask # get_value(readout='IC50', item= CCCS(=O)(=O)Nc1ccc(F)c(C(=O)c2c[nH]c3ncc(-c4ccc(Cl)cc4)cc23)c1F + Cc1nc(NC(=O)N2CCCC2C(N)=O)sc1-c1ccnc(C(C)(C)C(F)(F)F)c1 )
-- reply 5520
